Consider the following compounds and their measured inhibition at 0.1 µM readings.
Biological target: recombinant MMP-8 (Homo sapiens)
Sequence (P22894 101-467, species assumed): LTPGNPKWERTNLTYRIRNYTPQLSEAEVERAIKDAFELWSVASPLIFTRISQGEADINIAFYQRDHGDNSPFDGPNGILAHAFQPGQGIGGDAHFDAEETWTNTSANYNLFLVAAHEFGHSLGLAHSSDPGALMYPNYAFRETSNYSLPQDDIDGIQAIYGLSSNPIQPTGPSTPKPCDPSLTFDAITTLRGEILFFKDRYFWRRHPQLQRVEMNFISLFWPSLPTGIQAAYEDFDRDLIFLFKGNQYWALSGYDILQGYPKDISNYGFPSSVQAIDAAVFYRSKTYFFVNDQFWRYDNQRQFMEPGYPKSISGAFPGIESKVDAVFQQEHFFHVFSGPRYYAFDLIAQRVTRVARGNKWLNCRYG
Test: MMP compound screening, recombinant MMP-8 (SensoLyte 390 Generic MMP Activity Kit)
Format: biochemical
Conditions: 100 nM (0.1 uM) compound; read-out: inhibition of MMP-8 activity, % of total activity
parameter: inhibition at 0.1 µM (%)

• COc1ccc(S(=O)(=O)N(Cc2cn(CCOCCOCCOCCNC(=O)CCCCC[N+]3=C(/C=C/C=C/C=C4\N(C)c5ccc6ccccc6c5C4(C)C)C(C)(C)c4c3ccc3ccccc43)nn2)[C@@H](C(=O)NO)C(C)C)cc1 [M004] = 83
• CCN1\C(=C/C=C/C=C/C2=[N+](CCCCCC(=O)NCCOCCOCCOCCn3cc(CN([C@@H](C(=O)NO)C(C)C)S(=O)(=O)c4ccc(OC)cc4)nn3)c3ccc4c(S(=O)(=O)O)cc(S(=O)(=O)[O-])cc4c3C2(C)C)C(C)(C)c2c1ccc1c(S(=O)(=O)O)cc(S(=O)(=O)O)cc21 [M003] = 97
• COc1ccc(-c2cn(CCN([C@@H](C(=O)NO)C(C)C)S(=O)(=O)c3ccc(OC)cc3)nn2)cc1 [M001] = 92
• COc1ccc(S(=O)(=O)N(Cc2cn(CCOCCn3cc(CN([C@@H](C(=O)NO)C(C)C)S(=O)(=O)c4ccc(OC)cc4)nn3)nn2)[C@H](C(=O)NO)C(C)C)cc1 [M007] = 100

====

Target: recombinant MMP-13 (Homo sapiens)
Test: MMP compound screening, recombinant MMP-13 (SensoLyte 390 Generic MMP Activity Kit)
Assay type: biochemical
Details: 100 nM (0.1 uM) compound; read-out: inhibition of MMP-13 activity, % of total activity
parameter: inhibition at 0.1 µM

* COc1ccc(S(=O)(=O)N(Cc2cn(CCOCCn3cc(CN([C@@H](C(=O)NO)C(C)C)S(=O)(=O)c4ccc(OC)cc4)nn3)nn2)[C@H](C(=O)NO)C(C)C)cc1 [M007] | 99%
* COc1ccc(-c2cn(CCN([C@@H](C(=O)NO)C(C)C)S(=O)(=O)c3ccc(OC)cc3)nn2)cc1 [M001] | 99%
* COc1ccc(S(=O)(=O)N(Cc2cn(CCOCCOCCOCCNC(=O)CCCCC[N+]3=C(/C=C/C=C/C=C4\N(C)c5ccc6ccccc6c5C4(C)C)C(C)(C)c4c3ccc3ccccc43)nn2)[C@@H](C(=O)NO)C(C)C)cc1 [M004] | 91%
* CCN1\C(=C/C=C/C=C/C2=[N+](CCCCCC(=O)NCCOCCOCCOCCn3cc(CN([C@@H](C(=O)NO)C(C)C)S(=O)(=O)c4ccc(OC)cc4)nn3)c3ccc4c(S(=O)(=O)O)cc(S(=O)(=O)[O-])cc4c3C2(C)C)C(C)(C)c2c1ccc1c(S(=O)(=O)O)cc(S(=O)(=O)O)cc21 [M003] | 97%

====

Target: recombinant MMP-8 (Homo sapiens)
Assay: MMP compound screening, recombinant MMP-8 (SensoLyte 390 Generic MMP Activity Kit)
Assay type: biochemical
Conditions: 10 nM compound; read-out: inhibition of MMP-8 activity, % of total activity
Label criterion met when inhibition at 0.01 µM >= 60%; otherwise criterion not met.

* COc1ccc(S(=O)(=O)N(Cc2cn(CCOCCOCCOCCNC(=O)CCC(NC(=O)Cn3cc(CCCF)nn3)C(=O)NCCOCCOCCOCCn3cc(CN([C@@H](C(=O)NOC(C)(C)C)C(C)C)S(=O)(=O)c4ccc(OC)cc4)nn3)nn2)[C@@H](C(=O)NO)C(C)C)cc1 (stereo partly drawn) [M010] | criterion not met
* COc1ccc(S(=O)(=O)N(Cc2cn(CCOCCOCCOCCNC(=O)CCC(NC(=O)Cn3cc(CCCF)nn3)C(=O)NCCOCCOCCOCCn3cc(CN([C@@H](C(=O)NO)C(C)C)S(=O)(=O)c4ccc(OC)cc4)nn3)nn2)[C@@H](C(=O)NO)C(C)C)cc1 (stereo partly drawn) [M009] | criterion not met
* COc1ccc(S(=O)(=O)N(Cc2cn(CCOCCn3cc(CN([C@@H](C(=O)NO)C(C)C)S(=O)(=O)c4ccc(OC)cc4)nn3)nn2)[C@H](C(=O)NO)C(C)C)cc1 [M007] | criterion met
* COc1ccc(S(=O)(=O)N(Cc2cn(CCOCCNC(=O)c3cc(C(=O)NCCOCCn4cc(CN([C@@H](C(=O)NO)C(C)C)S(=O)(=O)c5ccc(OC)cc5)nn4)cc(-n4cc(CCCF)nn4)c3)nn2)[C@H](C(=O)NO)C(C)C)cc1 [M011] | criterion not met
* COc1ccc(S(=O)(=O)N(Cc2cn(CCOCCNC(=O)c3cc(C(=O)O)cc(-n4cc(CCCF)nn4)c3)nn2)[C@@H](C(=O)NO)C(C)C)cc1 [M013] | criterion met
* COc1ccc(S(=O)(=O)N(Cc2cn(CCOCCn3cc(CCCF)nn3)nn2)[C@@H](C(=O)NO)C(C)C)cc1 [M008] | criterion met
